test system: histamine; experiment: Antagonism of histamine-induced contraction of isolated ileal smooth muscle of guinea pigs; conditions: baseline before histamine; x±s, n = 8
MEASURED_PARAMETER: Smooth muscle tone Before administration

| CHEMICAL_STRUCTURE | TARGET_OR_TEST_SYSTEM | DATA_VALUE |
| --- | --- | --- |
| O=C1Cc2ccccc2C(=C2CCN(COP(=O)(O)O)CC2)c2ccsc21 | histamine | 1.79 ± 0.21 g |
| O=C1Cc2ccccc2C(=C2CCN(CCCCOP(=O)(O)O)CC2)c2ccsc21 | histamine | 1.78 ± 0.17 g |
| O=C1Cc2ccccc2C(=C2CCN(CCOP(=O)(O)O)CC2)c2ccsc21 | histamine | 1.75 ± 0.18 g |
| O=C1Cc2ccccc2C(=C2CCN(CCCCCOP(=O)(O)O)CC2)c2ccsc21 | histamine | 1.73 ± 0.21 g |
| O=C1Cc2ccccc2C(=C2CCN(CCCCOCOP(=O)(O)O)CC2)c2ccsc21 | histamine | 1.78 ± 0.20 g |
| O=C1Cc2ccccc2C(=C2CCN(CCOCOP(=O)(O)O)CC2)c2ccsc21 | histamine | 1.78 ± 0.20 g |
